The origin of these recorded values is patent US20250250357A1.

# Lookup of reported OD450 keyed by entry
Target: T1, human MSLN-FL-his protein (human, UniProt Q13421 296-580)
T1 construct: Made in HEK293E cells, purified on nickel column; also called hMSLN-FL-his; human MSLN full-length protein; not shown: His tag
T1 sequence (Q13421 other isoform, or with tags, fused parts or gaps): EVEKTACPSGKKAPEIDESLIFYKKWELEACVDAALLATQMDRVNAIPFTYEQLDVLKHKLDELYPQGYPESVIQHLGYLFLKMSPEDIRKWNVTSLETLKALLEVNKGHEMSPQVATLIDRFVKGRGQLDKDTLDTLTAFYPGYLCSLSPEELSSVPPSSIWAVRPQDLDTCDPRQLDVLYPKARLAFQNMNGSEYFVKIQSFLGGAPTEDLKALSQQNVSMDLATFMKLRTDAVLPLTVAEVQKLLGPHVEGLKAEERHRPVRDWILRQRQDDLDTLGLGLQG
Experiment: ELISA, coated antigen, antibody 0.02 nM

BINDER | OD450
S009-F7.30.5 chimeric antibody (antibody, human IgG1, kappa, V domains shown, Human-murine chimeric antibody, human IgG1/kappa constant regions) VH: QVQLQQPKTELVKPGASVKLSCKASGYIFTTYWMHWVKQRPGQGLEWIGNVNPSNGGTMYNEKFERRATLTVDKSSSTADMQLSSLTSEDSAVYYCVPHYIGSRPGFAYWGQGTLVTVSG VL: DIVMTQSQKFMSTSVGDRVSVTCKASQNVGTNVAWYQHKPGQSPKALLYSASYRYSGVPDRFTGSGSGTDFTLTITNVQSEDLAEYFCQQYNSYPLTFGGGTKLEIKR | 1.77
S009-F7.44.20 chimeric antibody (antibody, human IgG1, kappa, V domains shown, Human-murine chimeric antibody, human IgG1/kappa constant regions) VH: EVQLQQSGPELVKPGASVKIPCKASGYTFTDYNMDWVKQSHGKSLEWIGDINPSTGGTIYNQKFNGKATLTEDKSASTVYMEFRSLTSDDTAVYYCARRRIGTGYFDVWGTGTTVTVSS VL: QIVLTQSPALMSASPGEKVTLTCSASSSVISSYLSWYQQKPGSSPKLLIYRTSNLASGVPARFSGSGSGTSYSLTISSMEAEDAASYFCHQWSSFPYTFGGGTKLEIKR | 1.82
